Target: T1, DnaK-C15A/M404C/T437C (Escherichia coli (strain K12))
T1 chain: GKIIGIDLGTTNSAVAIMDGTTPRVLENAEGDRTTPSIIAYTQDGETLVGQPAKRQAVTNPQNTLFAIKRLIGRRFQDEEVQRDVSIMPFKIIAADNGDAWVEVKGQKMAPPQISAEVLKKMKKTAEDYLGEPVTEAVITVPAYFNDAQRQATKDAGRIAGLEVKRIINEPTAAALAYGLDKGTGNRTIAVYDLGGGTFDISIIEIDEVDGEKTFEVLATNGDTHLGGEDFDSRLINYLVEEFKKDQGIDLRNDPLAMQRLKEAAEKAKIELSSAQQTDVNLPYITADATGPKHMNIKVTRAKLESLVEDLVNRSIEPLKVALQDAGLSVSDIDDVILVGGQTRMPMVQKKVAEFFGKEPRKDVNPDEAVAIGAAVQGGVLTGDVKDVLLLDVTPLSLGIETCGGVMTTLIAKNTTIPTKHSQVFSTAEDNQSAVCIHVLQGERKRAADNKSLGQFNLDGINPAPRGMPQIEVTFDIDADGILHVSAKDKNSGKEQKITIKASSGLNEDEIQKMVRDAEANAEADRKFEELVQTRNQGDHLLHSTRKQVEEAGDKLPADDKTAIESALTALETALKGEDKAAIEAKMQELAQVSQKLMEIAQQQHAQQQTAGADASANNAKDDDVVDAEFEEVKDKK
Assay: FP
No end group written: not given here.
measure: Kd
Quote the value and follow it with the unit of measurement.

Exam item: Look up Kd: fluorescein-NRLLLTG [NR peptide (NRLLLTG), fluorescein-labelled]
Marked response: 2120 nM

These entries and their values trace back to paper PMC5662698.
